# Protocol description: Stability in human liver microsomes assessed as compound remaining at 1 uM in absence of NADPH regenerating system measured after 1 hr by LC-MS/MS method
# Format: ADME, microsome
# Reported conditions: read-out: Stability
Metric: remaining at 1 h, 1 µM (%)
Return type: number; implicit unit %.

Entry C[C@@H]1CN(C(=O)c2nc(Nc3cc(C4CC4)[nH]n3)c3cc(Cl)ccc3n2)CCN1.Cl — recorded remaining at 1 h, 1 µM = 103

---

# Protocol description: Solubility of the compound in DMSO by UV-metric method
# Format: physicochemical
Metric: solubility

// field: solubility; key: C[C@@H]1CN(C(=O)c2nc(Nc3cc(C4CC4)[nH]n3)c3cc(Cl)ccc3n2)CCN1.Cl ; value = > 30 mM
